# System: OVCAR-8 ovarian
# PROTOCOL_DETAILS: NCI tumour cell line growth inhibition, 48 h
The entries below are paired with their reported TGI.
OBSERVED_PROPERTY: TGI

C=CCC(N[C@H](CO)c1ccccc1)c1ccccn1 (some centres not stated)
> 100 µM
O=C(N=Nc1c(Cl)c(O)c2ccccc2c1O)C(=O)Nc1cccc(C(F)(F)F)c1
13.6 µM
CSCC(CO)NC(=O)/C=C/c1c(C)[nH]c(=O)[nH]c1=O (configuration not stated)
> 348 µM
O=C(NCCCl)Nc1ccccc1
> 100 µM
CN(C)c1cccc(OC(=O)NCCCl)c1
> 100 µM
CC(=O)[CH-]C(=O)c1ccccc1.CC(=O)[CH-]C(=O)c1ccccc1.CC[C@H](/C=C/C(C)[C@H]1CCC2[C@@H]3CC=C4C[C@@H]([O-])CC[C@]4(C)C3CC[C@@]21C)C(C)C.CC[C@H](/C=C/C(C)[C@H]1CCC2[C@@H]3CC=C4C[C@@H]([O-])CC[C@]4(C)C3CC[C@@]21C)C(C)C.Cl.[Ti+4] (some centres not stated)
> 25 µM
CCC[n+]1cc2cc3c(cc2c2c1-c1cc4c(cc1C2)OCO4)OCO3 (tested in a mixture with another compound)
12.2 µM

====

# System: OVCAR-4 ovarian
# PROTOCOL_DETAILS: NCI tumour cell line growth inhibition, 48 h; in the data active = GI50 below about 0.43 µM; inactive = the rest
Possible outcomes: active, inactive

Cc1ccc(N=Nc2c(O)ccc3n[nH]nc23)cc1
inactive
C[C@H]1COCCN1c1nc(-c2cnc(N)cc2C(F)F)nc(N2CCOCC2)n1
active
CC(C)(C)C(=O)c1c(C(F)(F)F)n([O-])c2cc(Cl)c(Cl)cc2[n+]1=O
inactive
COCCNCc1ccc(-c2cc3nccc(Oc4ccc(NC(=O)C5(C(=O)Nc6ccc(F)cc6)CC5)cc4F)c3s2)nc1
inactive
CC1=NN(c2cccc(Cl)c2)C(=O)/C1=C\C=C\c1ccccc1
inactive
COc1c(B(O)O)cccc1-c1nc2ccc3[nH]ncc3c2c2c1CCCC2
inactive
COc1ccc(/C=C2\COc3ccc(O)c(O)c3C2=O)cc1OC
inactive
Cc1ccnc2c(NC(C)CCCN)cc(O)c(O)c12 (centres undefined)
inactive
Oc1ccc(Cl)cc1Sc1cc(Cl)ccc1O
inactive
CCCCSc1nc(N)c2cn[nH]c2n1
inactive
O=C(NCc1ccco1)C1CCN(S(=O)(=O)c2ccc(Cl)cc2)CC1
inactive
CC(=O)[CH-]C(=O)c1ccccc1.CC(=O)[CH-]C(=O)c1ccccc1.CC[C@H](/C=C/C(C)[C@H]1CCC2[C@@H]3CC=C4C[C@@H]([O-])CC[C@]4(C)C3CC[C@@]21C)C(C)C.CC[C@H](/C=C/C(C)[C@H]1CCC2[C@@H]3CC=C4C[C@@H]([O-])CC[C@]4(C)C3CC[C@@]21C)C(C)C.Cl.[Ti+4] (some centres undefined)
inactive
Cc1c(Cl)cccc1NC(=O)c1sc2nc3c(cc2c1N)C(=O)CCC3
inactive
COc1ccc2c(CCCc3ccc(Cl)cc3Cl)c3[n+](cc2c1OC)CCc1cc2c(cc1-3)OCO2
active
CCC[n+]1cc2cc3c(cc2c2c1-c1cc4c(cc1C2)OCO4)OCO3 (tested in a mixture with another compound)
inactive
CC(C)(O)CCc1cccc(C(=O)c2cnn(-c3ccc(F)cc3)c2N)c1
inactive
COC(=O)c1c2c(c(C)[n+]([O-])c1C)C(=O)C(NCc1ccc(F)cc1)=CC2=O
inactive
COc1ccc(/C=C\c2cc(OC)c(OC)c(OC)c2)cc1OC(=O)CC(N)C(=O)O (centres undefined)
inactive
Cc1cc(Cl)nc(N(CCCNc2ccnc3cc(Cl)ccc23)Cc2cccs2)n1
inactive

====

# System: NCI-H522 lung
# PROTOCOL_DETAILS: NCI tumour cell line growth inhibition, 48 h; in the data active means GI50 below about 0.43 µM; inactive means the rest
Possible outcomes: active, inactive

CCN(CC)S(=O)(=O)c1cccc(-c2ccc3c(NC(=O)C4CC4)n[nH]c3c2)c1
inactive
CN(C)c1cc2c(Nc3ccc4c(cnn4Cc4ccccc4)c3)ncnc2cn1
inactive
COC(=O)c1ccc(NC(=O)c2ccc(NC3=C(Cl)C(=O)N(Cc4ccccc4)C3=O)cc2)cc1
inactive
O=C(N/N=C/c1cc(Cl)ccc1O)c1ccccc1Nc1ccnc(C(F)(F)F)c1
inactive
CCC[CH2][Sn]([CH2]CCC)([O]C(=O)c1cc(F)ccc1F)[O]C(=O)c1cc(F)ccc1F
active
C[C@@]1(C(=O)O)CCC[C@]2(C)C1CC[C@]13C[C@@](O)(CO)[C@](O)(CC[C@]12O)C3 (stereo partly drawn)
inactive
O=C(NCc1ccco1)C1CCN(S(=O)(=O)c2ccc(Cl)cc2)CC1
inactive
C=CCC(N[C@H](CO)c1ccccc1)c1ccccn1 (stereo partly drawn)
inactive
Cc1nn(Cc2ccccc2)cc1C(=O)Nc1sc2c(c1C(N)=O)CCC(=O)C2
inactive
Cc1cc(Cl)nc(N(CCCNc2ccnc3cc(Cl)ccc23)Cc2cccs2)n1
inactive
C[C@@H](CS[As](C)C)C(=O)N1CCC[C@H]1C(=O)O
active
Cc1ccc(N=Nc2c(O)ccc3n[nH]nc23)cc1
inactive
C[C@H]1COCCN1c1nc(-c2cnc(N)cc2C(F)F)nc(N2CCOCC2)n1
active

====

# Tested on: OVCAR-8 ovarian
# PROTOCOL_DETAILS: NCI tumour cell line growth inhibition, 48 h
The entries below are paired with their reported TGI.
OBSERVED_PROPERTY: TGI

CC1(C)N=C(c2ccccc2)SC12S[C@@H]1CCCC[C@H]1S2
> 100 µM
CSC1(C(=O)O)C2CCC3C2CCC31 (stereo unspecified)
> 100 µM
O=[N+]([O-])c1ccc(C2SCc3nc4ccccc4n32)cc1 (stereo unspecified)
> 100 µM
CN(C)C(=S)/N=c1\ssc(=S)n1Cc1ccco1
> 100 µM
Cc1c(NC(=O)Nc2c(Cl)cccc2Cl)c(=O)n(-c2ccccc2)n1C
> 100 µM
NNC(=O)CCc1ccc2ccc3ccccc3c2c1
> 100 µM
CCN(CC)/[N+]([O-])=N/OCOC
> 100 µM
N#Cc1c(N)nc(SCc2ccccc2)c(C#N)c1-c1ccc(O)cc1
30.7 µM
Cc1cc(N(CCC#N)CCC#N)ccc1/C=C(\NC(=O)/C=C/c1ccccc1)C(=O)Nc1ccc(Cl)cc1
> 100 µM
Nc1ccc(Cn2ccc3c4c(N)nc(N)nc4ccc32)cc1
22 µM
N#C/C(=C\c1ccc([N+](=O)[O-])o1)c1n[nH]c(Cc2ccccc2)n1
> 25.1 µM
Cc1ccnc2c(NC(C)CCCN)cc(O)c(O)c12 (stereo unspecified)
82.6 µM
CN(C)CC1C(=O)O[C@H]2[C@H]1CC/C(COC(=O)NCc1ccc(Cn3c(=O)sn(CCCI)c3=O)cc1)=C\CC[C@@]1(C)O[C@@H]21 (stereo partly specified)
2.72 µM
CC(C)=CCC/C(C)=C/Cc1c(O)c(C)cc2c1[nH]c1cc(O)ccc12
> 25 µM
COc1ccc(CCc2ccc3c(c2)OCO3)cc1
> 100 µM
O=c1oc2ccccc2c(O)c1C(c1cccc(C(c2c(O)c3ccccc3oc2=O)c2c(O)c3ccccc3oc2=O)c1)c1c(O)c2ccccc2oc1=O
> 100 µM
CCOC(=O)C1=C(O)C(=O)c2ccoc2C1=O
> 100 µM
NCCCC(N=Cc1nc(-c2ccccc2)oc1O)C(=O)O (stereo unspecified)
> 100 µM
CC(=O)O[C@H]1CC[C@H]2[C@@H]3CCC4=C/C(=N/OCCN(C)C)CC[C@]4(C)[C@H]3CC[C@]12C
28.1 µM
Cc1ccc2c(n1)NC(=O)C(Cc1ccccc1)(N=[N+]=[N-])C2=O (stereo unspecified)
> 100 µM
CC(C)(C)C1=CC(=C2C=Cc3cc(O)ccc3O2)C=C(C(C)(C)C)C1=O
3.79 µM

====

The entries below are paired with their reported TGI.
# Tested on: RPMI-8226 leukemia
# PROTOCOL_DETAILS: NCI tumour cell line growth inhibition, 48 h
OBSERVED_PROPERTY: TGI

c1cc(C2CCCCC2)ccc1-c1cnc2nonc2n1
2.79 µM
CC(=O)[CH-]C(=O)c1ccccc1.CC(=O)[CH-]C(=O)c1ccccc1.CC[C@H](/C=C/C(C)[C@H]1CCC2[C@@H]3CC=C4C[C@@H]([O-])CC[C@]4(C)C3CC[C@@]21C)C(C)C.CC[C@H](/C=C/C(C)[C@H]1CCC2[C@@H]3CC=C4C[C@@H]([O-])CC[C@]4(C)C3CC[C@@]21C)C(C)C.Cl.[Ti+4] (some centres not stated)
> 25 µM
CN1C(=O)[C@H](c2c[nH]c3ccccc23)[C@H](c2c[nH]c3ccccc23)C1=O
> 66.9 µM
CC1=NN(C(=O)CC(=O)NC(=O)/C=C\c2ccccc2)C(=O)C1N=Nc1ccc([N+](=O)[O-])cc1 (configuration not stated)
> 100 µM
CCCCCN(CCCCC)C(=O)[C@H](CCC(=O)O)NC(=O)c1cc2ccccc2[nH]1
54.8 µM
NC(=O)C(=O)C1C(=O)N(c2ccccc2)N=C1N (configuration not stated)
> 100 µM
C[C@@]1(C(=O)O)CCC[C@]2(C)C1CC[C@]13C[C@@](O)(CO)[C@](O)(CC[C@]12O)C3 (some centres not stated)
> 100 µM
COc1cc2c3c(n(CCN4CCOCC4)c(=O)c2cc1OC)-c1ccccc1C3=O
> 100 µM
NCCCC(N=Cc1nc(-c2ccccc2)oc1O)C(=O)O (configuration not stated)
> 100 µM
COc1cc2c3c(n([C@@H]4CCOC4)c(=O)c2cc1OC)-c1cc2c(cc1C3=O)OCO2
> 100 µM
O=C(Sc1n[nH]c(=O)[nH]c1=O)c1cccc2nc3ccccc3nc12
> 100 µM
COc1ccc(/C=C2\Sc3nnc(-c4ccccc4)n3N=C2c2cc(F)c(Cl)cc2Cl)cc1OC
> 100 µM
